SUBJECT OF TEST: T1, Anti-PSMA Fab (SEQ ID NOs: 19, 20)
T1 construct: Biotinylated PSMA Fab captured on neutravidin coated plates in the phage ELISA; also called 006 PSMA Fab
METHOD DESCRIPTION: phage binding ELISA; clonal phage supernatant on biotinylated PSMA Fab captured on neutravidin plates, anti-M13 HRP detection
OBSERVATION TYPE: Anti-PSMA Fab (SEQ ID NOs: 19, 20) signal
Please reply with the number alone, leaving off any unit.

[
  {
    "BINDER": "FTIWCIPEWMCLHE [Phage-1916]",
    "MEASURED RESULT": 2
  },
  {
    "BINDER": "VMKWCIPEWMCYML [Phage-1906]",
    "MEASURED RESULT": 2.02
  },
  {
    "BINDER": "MMKWCIPTWMCEME [Phage-1912]",
    "MEASURED RESULT": 2
  },
  {
    "BINDER": "GEYWCIPSWMCQLY [Phage-1920]",
    "MEASURED RESULT": 1.99
  },
  {
    "BINDER": "GDPWCIPAWMCMEF [Phage-1911]",
    "MEASURED RESULT": 2.01
  },
  {
    "BINDER": "WDNWCIPPWMCIGF [Phage-1908]",
    "MEASURED RESULT": 2.02
  },
  {
    "BINDER": "MMKWCTPAWMCEEA [Phage-1909]",
    "MEASURED RESULT": 2.01
  }
]

Proceeding to the next binder to report its Anti-PSMA Fab (SEQ ID NOs: 19, 20) signal.
Q: # return recorded Anti-PSMA Fab (SEQ ID NOs: 19, 20) signal for entry VIKWCTPAWMCTAL [Phage-1914]
Result: 2
